B1: LINE1-full (parent)
chain: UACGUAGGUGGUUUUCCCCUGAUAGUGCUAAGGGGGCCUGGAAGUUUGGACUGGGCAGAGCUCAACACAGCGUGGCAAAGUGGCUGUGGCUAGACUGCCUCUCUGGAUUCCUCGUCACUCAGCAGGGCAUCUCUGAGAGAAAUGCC

# Variants of: B1
# measurement-protocol: self-cleavage, relative activity (ratio to wild type); higher = more cleavage; in vitro, sequencing; the parent is a self-cleaving ribozyme
reported-metric: self-cleavage

*Q* Determine from records and report self-cleavage for U45C C95U
*A* 0.2

*Q* Determine from records and report self-cleavage for A22G A121G
*A* 0.95

*Q* Determine from records and report self-cleavage for A6G A140U
*A* 0.77

*Q* Determine from records and report self-cleavage for G8A A22G
*A* 1

*Q* Determine from records and report self-cleavage for G27A U115C
*A* 1.54

*Q* Determine from records and report self-cleavage for A65G A107U
*A* 0

*Q* Determine from records and report self-cleavage for A64G C98U
*A* 0.11

*Q* Determine from records and report self-cleavage for U12A C76U
*A* 1.23

*Q* Determine from records and report self-cleavage for U91A A117U
*A* 0.6

*Q* Determine from records and report self-cleavage for U12A A59G
*A* 0.27

*Q* Determine from records and report self-cleavage for A43G G83A
*A* 1.03

*Q* Determine from records and report self-cleavage for A67C U109C
*A* 0.06

*Q* Determine from records and report self-cleavage for U29A U115C
*A* 1.98

*Q* Determine from records and report self-cleavage for U14C G35A
*A* 1.22

*Q* Determine from records and report self-cleavage for U46A A64G
*A* 0.18

*Q* Determine from records and report self-cleavage for C18U A136G
*A* 1.33

*Q* Determine from records and report self-cleavage for U39A U87C
*A* 0.22

*Q* Determine from records and report self-cleavage for U12G A136G
*A* 1.72

*Q* Determine from records and report self-cleavage for U20A A117U
*A* 1.49

*Q* Determine from records and report self-cleavage for G60A A78G
*A* 0.04

*Q* Determine from records and report self-cleavage for U20A U73A
*A* 1.5

*Q* Determine from records and report self-cleavage for `A65C`
*A* 0.04

*Q* Determine from records and report self-cleavage for A117G A124U
*A* 1.25

*Q* Determine from records and report self-cleavage for A2G U100C
*A* 0.62

*Q* Determine from records and report self-cleavage for U46A G125A
*A* 2

*Q* Determine from records and report self-cleavage for U96C U119A
*A* 0.18

*Q* Determine from records and report self-cleavage for G106A U112A
*A* 1.64

*Q* Determine from records and report self-cleavage for U5C G10A
*A* 0.51

*Q* Determine from records and report self-cleavage for U81G U134G
*A* 1.73

*Q* Determine from records and report self-cleavage for U29C A31U
*A* 1

*Q* Determine from records and report self-cleavage for `A129U`
*A* 1.4

*Q* Determine from records and report self-cleavage for U39C G83U
*A* 0.52

*Q* Determine from records and report self-cleavage for U5G A124U
*A* 0.96

*Q* Determine from records and report self-cleavage for U5A A140U
*A* 1.09

*Q* Determine from records and report self-cleavage for A65G G127A
*A* 0.05

*Q* Determine from records and report self-cleavage for U5C A121G
*A* 1.28

*Q* Determine from records and report self-cleavage for A31G A57G
*A* 0.95

*Q* Determine from records and report self-cleavage for U9C A64U
*A* 0.6

*Q* Determine from records and report self-cleavage for A6G U132A
*A* 1.04

*Q* Determine from records and report self-cleavage for A59G G86U
*A* 0.03

*Q* Determine from records and report self-cleavage for A124U C131A
*A* 0.96

*Q* Determine from records and report self-cleavage for U45C G105A
*A* 1.34

*Q* Determine from records and report self-cleavage for A121G G125U
*A* 1.8

*Q* Determine from records and report self-cleavage for U14C A69U
*A* 0.07

*Q* Determine from records and report self-cleavage for U26C A121G
*A* 1.64

*Q* Determine from records and report self-cleavage for U46G G114A
*A* 1.18
